Recorded values, source ChEMBL document CHEMBL4800732.

The entries below are paired with their reported pKi.
# Tgt: 5-hydroxytryptamine receptor 1D (Homo sapiens, UniProt P28221)
# Sequence (P28221 whole entry): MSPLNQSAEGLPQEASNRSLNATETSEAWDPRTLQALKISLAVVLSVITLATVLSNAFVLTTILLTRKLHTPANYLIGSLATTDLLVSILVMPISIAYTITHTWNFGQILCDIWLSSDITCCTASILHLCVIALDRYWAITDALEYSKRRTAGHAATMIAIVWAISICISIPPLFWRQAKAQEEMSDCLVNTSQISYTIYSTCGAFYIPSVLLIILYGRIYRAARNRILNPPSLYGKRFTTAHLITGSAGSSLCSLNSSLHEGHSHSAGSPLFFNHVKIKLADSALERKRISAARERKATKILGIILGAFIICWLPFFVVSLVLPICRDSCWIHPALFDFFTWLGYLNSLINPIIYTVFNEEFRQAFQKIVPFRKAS
# Experiment Description: GPCRScan assay: inhibition of 5-HT1D
# Design: radioligand conc. used [nm] 1.0 – 2.0, parental cells HEKT
# Condition Set: read-out: Ki
To interpret pKi, take it as minus log10 of a concentration measured in moles per litre.

Could you please provide reported pKi for CN1CCN(c2ccnc(NCCc3ccccc3)n2)CC1 [TP-040n] ? Thanks!
5.69

Answer with the recorded pKi of CC1CCN(c2ccnc(NCc3cn(C)cn3)n2)CC1 only.
6.38

* * *

# Tgt: 5-hydroxytryptamine receptor 2A (Homo sapiens)
# Sequence (P28223 whole entry): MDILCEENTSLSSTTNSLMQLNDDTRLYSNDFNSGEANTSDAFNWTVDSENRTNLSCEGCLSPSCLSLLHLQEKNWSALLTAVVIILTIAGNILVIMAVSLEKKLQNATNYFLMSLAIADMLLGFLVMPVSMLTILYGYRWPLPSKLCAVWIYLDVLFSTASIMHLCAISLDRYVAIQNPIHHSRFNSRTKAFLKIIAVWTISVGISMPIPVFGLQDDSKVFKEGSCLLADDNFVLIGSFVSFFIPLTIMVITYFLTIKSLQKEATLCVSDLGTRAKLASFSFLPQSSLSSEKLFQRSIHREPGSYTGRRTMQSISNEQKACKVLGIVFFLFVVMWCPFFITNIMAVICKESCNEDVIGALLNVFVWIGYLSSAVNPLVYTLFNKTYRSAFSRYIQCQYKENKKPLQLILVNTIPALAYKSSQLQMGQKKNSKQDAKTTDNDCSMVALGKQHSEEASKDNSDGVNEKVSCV
# Experiment Description: GPCRScan assay: inhibition of 5-HT2A
# Design: radioligand conc. used [nm] 1.2 – 2.4, parental cells HEKT
# Condition Set: read-out: Ki
Parameter Measured: Ki (nM)
Express your answer in nM, writing the number without its unit.

Provide Ki value for the following compound: CN1CCN(c2ccnc(NCCc3ccccc3)n2)CC1 [TP-040n]
758

* * *

# Tgt: Sigma intracellular receptor 2 (Homo sapiens, UniProt Q5BJF2)
# Sequence (Q5BJF2 whole entry): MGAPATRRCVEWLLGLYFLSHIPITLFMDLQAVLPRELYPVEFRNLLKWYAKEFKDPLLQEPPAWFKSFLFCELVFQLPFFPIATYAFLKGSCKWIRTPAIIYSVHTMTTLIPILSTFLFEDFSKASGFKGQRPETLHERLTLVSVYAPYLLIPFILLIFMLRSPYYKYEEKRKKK
# Experiment Description: GPCRScan assay: inhibition of Sigma 2
# Set-up: radioligand conc. used [nm] 5.0, parental cells HEKT
# Condition Set: read-out: Ki
Parameter Measured: pKi
A value of pKi is the negative decimal logarithm of a concentration given in moles per litre.

State the measured pKi (Sigma intracellular receptor 2 (Homo sapiens, UniProt Q5BJF2)) of CN1CCN(c2ccnc(NCCc3ccccc3)n2)CC1 [TP-040n]
5.83

* * *

# Tgt: 5-hydroxytryptamine receptor 2B (Homo sapiens)
# Sequence (P41595 whole entry): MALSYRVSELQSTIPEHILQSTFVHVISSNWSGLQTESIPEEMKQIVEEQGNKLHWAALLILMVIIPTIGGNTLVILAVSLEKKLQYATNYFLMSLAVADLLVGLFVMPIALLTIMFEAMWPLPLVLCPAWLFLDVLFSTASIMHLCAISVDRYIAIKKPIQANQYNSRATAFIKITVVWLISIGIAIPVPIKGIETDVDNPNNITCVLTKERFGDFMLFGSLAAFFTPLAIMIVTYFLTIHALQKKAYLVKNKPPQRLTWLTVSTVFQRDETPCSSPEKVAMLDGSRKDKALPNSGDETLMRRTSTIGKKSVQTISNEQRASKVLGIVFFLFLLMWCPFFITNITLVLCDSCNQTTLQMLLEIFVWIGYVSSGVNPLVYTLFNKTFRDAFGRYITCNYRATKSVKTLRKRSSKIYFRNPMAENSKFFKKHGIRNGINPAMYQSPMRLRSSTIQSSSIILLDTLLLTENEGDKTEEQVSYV
# Experiment Description: GPCRScan assay: inhibition of 5-HT2B
# Design: radioligand conc. used [nm] 1.0 – 2.0, parental cells stable HEK
# Condition Set: read-out: Ki
This section presents compounds with their documented pKi values.
When answering, recall that pKi equals minus log10 of the concentration in mol/L, and write that number alone.

> print(dat)
                                   compound  observed
1  CC1CCN(c2ccnc(NCc3cn(C)cn3)n2)CC1 [TP-040]      6.16

Please find the next compound below.
Retrieve pKi measured for CN1CCN(c2ccnc(NCCc3ccccc3)n2)CC1 [TP-040n] and print it.
6.54

* * *

# Tgt: Sigma non-opioid intracellular receptor 1 (Homo sapiens)
# Sequence (Q99720 whole entry): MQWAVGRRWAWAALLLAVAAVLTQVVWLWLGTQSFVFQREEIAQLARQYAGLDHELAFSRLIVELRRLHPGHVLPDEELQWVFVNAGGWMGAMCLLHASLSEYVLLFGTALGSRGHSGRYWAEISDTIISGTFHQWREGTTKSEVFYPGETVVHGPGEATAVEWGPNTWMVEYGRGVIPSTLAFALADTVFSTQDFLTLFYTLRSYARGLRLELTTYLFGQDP
# Experiment Description: GPCRScan assay: inhibition of Sigma 1
# Set-up: radioligand conc. used [nm] 4.0 – 5.0, parental cells HEKT
# Condition Set: read-out: Ki
Parameter Measured: pKi
Give only the number. pKi is defined as minus log10 of concentration in molar units.

Please supply the value of reported pKi for the item CN1CCN(c2ccnc(NCCc3ccccc3)n2)CC1 [TP-040n]
6.90

* * *

# Tgt: Alpha-2B adrenergic receptor (Homo sapiens, UniProt P18089)
# Sequence (P18089 whole entry): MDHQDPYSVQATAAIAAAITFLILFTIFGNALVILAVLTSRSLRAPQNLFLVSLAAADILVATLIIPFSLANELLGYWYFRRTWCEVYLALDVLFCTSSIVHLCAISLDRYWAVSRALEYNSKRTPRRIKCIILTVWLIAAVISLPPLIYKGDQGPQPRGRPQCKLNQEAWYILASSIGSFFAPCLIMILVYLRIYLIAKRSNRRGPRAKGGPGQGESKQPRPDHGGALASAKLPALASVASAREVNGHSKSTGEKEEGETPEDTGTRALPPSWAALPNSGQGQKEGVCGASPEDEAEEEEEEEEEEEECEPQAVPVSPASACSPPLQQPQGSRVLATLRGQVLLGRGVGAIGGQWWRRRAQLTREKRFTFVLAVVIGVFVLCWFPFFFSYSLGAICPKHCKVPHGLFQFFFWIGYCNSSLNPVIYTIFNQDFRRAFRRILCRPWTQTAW
# Experiment Description: GPCRScan assay: inhibition of Alpha2B
# Parameters: radioligand conc. used [nm] 1.5 – 2.0, parental cells HEKT
# Condition Set: read-out: Ki
Reported pKi values are given for each entry in this list.
Hey, just a heads up that pKi is the negative log base 10 of the concentration in molar.

> print(dat)
                            compound  observed
1  CC1CCN(c2ccnc(NCc3cn(C)cn3)n2)CC1      5.59

Quote pKi reported for CN1CCN(c2ccnc(NCCc3ccccc3)n2)CC1 [TP-040n] please.
6.32
